target: HLA-A*01:01; assay: IEDB peptide-MHC binding, purified MHC/competitive/radioactivity; filed as Kd, often an IC50 or EC50 that approximates it; bounds were set here for any values at or beyond the usual limits of such assays; details: source organism: Dengue virus 4 Philippines/H241/1956
Experimental Readout: Kd (µM)
Report the value in µM with no unit label.

For the record "TTANWLWALL" , what value of Kd is listed for HLA-A*01:01? 12.3

As a next step, examine the sequence that follows.
Recorded Kd for "FIDGISLGL" with HLA-A*01:01, please? 1.52

###

target: HLA-A*02:11; assay: IEDB peptide-MHC binding, purified MHC/direct/fluorescence; filed as Kd, often an IC50 or EC50 that approximates it; bounds were set here for any values at or beyond the usual limits of such assays; conditions: source organism: Rickettsia sibirica 246
pKd: −log10 of the molar value.
Experimental Readout: pKd

Field request: pKd | item: "EFVSANLAM" ≤ 4.70

###

target: HLA-B*57:01; test: IEDB peptide-MHC binding, purified MHC/direct/fluorescence; filed as Kd, often an IC50 or EC50 that approximates it; bounds were set here for any values at or beyond the usual limits of such assays; conditions: source organism: Orthohantavirus andesense
Experimental Readout: Kd

Given the sequence "AYDHGNVIL" , what is its reported Kd? ≥ 20 µM

###

biological target: HLA-A*01:01; assay: IEDB peptide-MHC binding, purified MHC/direct/fluorescence; filed as Kd, often an IC50 or EC50 that approximates it; bounds were set here for any values at or beyond the usual limits of such assays; conditions: source organism: Influenza A virus (A/Wisconsin/4755/1994(H1N1))
pKd: −log10 of the molar value.
Experimental Readout: pKd

What measured pKd is associated with "DPKKTGGPI" on HLA-A*01:01? ≤ 4.70

###

target: HLA-B*48:01; test: IEDB peptide-MHC binding, purified MHC/direct/fluorescence; filed as Kd, often an IC50 or EC50 that approximates it; bounds were set here for any values at or beyond the usual limits of such assays; settings: source organism: Marburg virus - Musoke, Kenya, 1980
Experimental Readout: Kd

# get_value(readout='Kd', item= "NRWKSWFSY" ) ≥ 20 µM

***
Returns the measured Kd for the input sequence. Input: "IFDDLQGSL" ≥ 20 µM

###

molecular target: HLA-B*15:01; test: IEDB peptide-MHC binding, purified MHC/direct/fluorescence; filed as Kd, often an IC50 or EC50 that approximates it; bounds were set here for any values at or beyond the usual limits of such assays; details: source organism: Mycobacterium tuberculosis str. Haarlem
Measured pKd, listed per entry for reference.
Convention used: pKd is expressed as -log10 of the molar concentration.

What does the data say about its pKd? Entry: "ALTAGAGAY" 6.35

Read the next record carefully.
Entry under review: "RMGAAVTPY" . Reported pKd? 7.01

###

biological target: HLA-A*03:01; assay: IEDB peptide-MHC binding, purified MHC/direct/fluorescence; filed as Kd, often an IC50 or EC50 that approximates it; bounds were set here for any values at or beyond the usual limits of such assays; settings: source organism: Homo sapiens
Experimental Readout: Kd (nM)
The figure you give is taken to be in nM; do not add the unit.

Kd for "RVMAPRALL" ? 775

###

target: HLA-A*30:02; test: IEDB peptide-MHC binding, purified MHC/competitive/radioactivity; filed as Kd, often an IC50 or EC50 that approximates it; bounds were set here for any values at or beyond the usual limits of such assays; conditions: source organism: Dengue virus 3 Martinique/1243/1999
Experimental Readout: Kd (nM)
Expressed in nM, but write only the number.

Entry under review: "ISQHNHRPGY" . Reported Kd? 99.8

###

target: HLA-A*33:01; assay: IEDB peptide-MHC binding, purified MHC/competitive/radioactivity; filed as Kd, often an IC50 or EC50 that approximates it; bounds were set here for any values at or beyond the usual limits of such assays; conditions: source organism: Dengue virus 1 Nauru/West Pac/1974
Experimental Readout: pKd
# reply with the number alone; pKd is -log10 of concentration in mol/L

Given "SYTQVCDHR" , state its recorded pKd. 7.36

###

biological target: HLA-A*30:01; test: IEDB peptide-MHC binding, purified MHC/competitive/fluorescence; filed as Kd, often an IC50 or EC50 that approximates it; bounds were set here for any values at or beyond the usual limits of such assays; conditions: source organism: Mycobacterium tuberculosis variant bovis BCG str. Pasteur 1173P2
pKd: −log10 of the molar value.
Experimental Readout: pKd

HLA-A*30:01 / pKd / "RPRLHSISF" : value? ≤ 4.70

###

molecular target: HLA-A*03:01; assay: IEDB peptide-MHC binding, purified MHC/competitive/fluorescence; bounds were set here for any values at or beyond the usual limits of such assays; details: source organism: Pan troglodytes
pIC50: −log10 of the molar value.
Experimental Readout: pIC50

I have this sequence here, "RPPYSSYGY" , and I need its recorded pIC50. ≤ 4.70

###

biological target: HLA-A*68:02; experiment: IEDB peptide-MHC binding, purified MHC/competitive/fluorescence; filed as Kd, often an IC50 or EC50 that approximates it; bounds were set here for any values at or beyond the usual limits of such assays; conditions: source organism: Salmonella enterica subsp. enterica serovar Typhi str. CT18
Experimental Readout: Kd

Which value of Kd has been reported for "KSKPRIHGY" in the records? ≥ 20 µM

###

target: HLA-B*15:17; assay: IEDB peptide-MHC binding, purified MHC/competitive/fluorescence; filed as Kd, often an IC50 or EC50 that approximates it; bounds were set here for any values at or beyond the usual limits of such assays; details: source organism: Homo sapiens
pKd: −log10 of the molar value.
Experimental Readout: pKd

Test system HLA-B*15:17; read-out pKd; what value for "TYSPALNKM" ? ≤ 4.70

# query: pKd | item "YSPALNKMF" | system: HLA-B*15:17 6.47

Find pKd (HLA-B*15:17) for the entry "FWAWSVLRV" ≤ 4.70

Item "TLKDGDFIL" with HLA-B*15:17 - pKd? ≤ 4.70

Next:
Record lookup: for HLA-B*15:17, what pKd belongs to "IYDFYYLDY" ? ≤ 4.70

###

target: HLA-B*83:01; assay: IEDB peptide-MHC binding, purified MHC/competitive/fluorescence; filed as Kd, often an IC50 or EC50 that approximates it; bounds were set here for any values at or beyond the usual limits of such assays; conditions: source organism: Orthohantavirus puumalaense
Experimental Readout: Kd

Reported Kd for "AELGAFFSI" : what is it? ≥ 5 µM

###

target: HLA-B*27:05; test: IEDB peptide-MHC binding, purified MHC/competitive/fluorescence; filed as Kd, often an IC50 or EC50 that approximates it; bounds were set here for any values at or beyond the usual limits of such assays; conditions: source organism: Vaccinia virus Copenhagen
Experimental Readout: Kd

Any idea what Kd came out for "RHDITGFIL" on HLA-B*27:05? ≥ 20 µM

###

target: HLA-A*02:03; test: IEDB peptide-MHC binding, purified MHC/competitive/radioactivity; filed as Kd, often an IC50 or EC50 that approximates it; bounds were set here for any values at or beyond the usual limits of such assays; details: source organism: Mammarenavirus lassaense
Experimental Readout: pKd
Lab note — pKd values are minus log10 of concentrations in M.

State the recorded pKd for this entry: "NCLSLLLSV" 6.36

Would you kindly share the measured pKd for "LLMEGLKLLS" ? 7.40

###

molecular target: HLA-A*02:02; experiment: IEDB peptide-MHC binding, purified MHC/competitive/radioactivity; filed as Kd, often an IC50 or EC50 that approximates it; bounds were set here for any values at or beyond the usual limits of such assays; conditions: source organism: Human immunodeficiency virus type 1 (CLONE 12)
Experimental Readout: Kd (nM)
# unit: nM | format: bare number

Requested field: Kd. Item: "AIIRILQQL" 374

###

biological target: HLA-B*08:02; assay: IEDB peptide-MHC binding, purified MHC/direct/fluorescence; filed as Kd, often an IC50 or EC50 that approximates it; bounds were set here for any values at or beyond the usual limits of such assays; details: source organism: Variola virus
pKd: −log10 of the molar value.
Experimental Readout: pKd

# query: pKd of entry "YYKDDISYF" ≤ 4.70

###

molecular target: HLA-B*57:01; test: IEDB peptide-MHC binding, purified MHC/competitive/fluorescence; filed as Kd, often an IC50 or EC50 that approximates it; bounds were set here for any values at or beyond the usual limits of such assays; conditions: source organism: Reston ebolavirus
Experimental Readout: Kd

# get_value(readout='Kd', item= "LPRERFRKT" ) ≥ 20 µM

###

biological target: HLA-B*15:17; assay: IEDB peptide-MHC binding, purified MHC/competitive/fluorescence; filed as Kd, often an IC50 or EC50 that approximates it; bounds were set here for any values at or beyond the usual limits of such assays; settings: source organism: Mycobacterium tuberculosis variant bovis BCG str. Pasteur 1173P2
pKd: −log10 of the molar value.
Experimental Readout: pKd

May I ask what pKd has been recorded for "RPRLHSISF" ? ≤ 4.70
